Source listed as ChEMBL document CHEMBL4680221.

subject-of-test: UniProt Q9UGL1
Sequence (Q9UGL1 whole entry): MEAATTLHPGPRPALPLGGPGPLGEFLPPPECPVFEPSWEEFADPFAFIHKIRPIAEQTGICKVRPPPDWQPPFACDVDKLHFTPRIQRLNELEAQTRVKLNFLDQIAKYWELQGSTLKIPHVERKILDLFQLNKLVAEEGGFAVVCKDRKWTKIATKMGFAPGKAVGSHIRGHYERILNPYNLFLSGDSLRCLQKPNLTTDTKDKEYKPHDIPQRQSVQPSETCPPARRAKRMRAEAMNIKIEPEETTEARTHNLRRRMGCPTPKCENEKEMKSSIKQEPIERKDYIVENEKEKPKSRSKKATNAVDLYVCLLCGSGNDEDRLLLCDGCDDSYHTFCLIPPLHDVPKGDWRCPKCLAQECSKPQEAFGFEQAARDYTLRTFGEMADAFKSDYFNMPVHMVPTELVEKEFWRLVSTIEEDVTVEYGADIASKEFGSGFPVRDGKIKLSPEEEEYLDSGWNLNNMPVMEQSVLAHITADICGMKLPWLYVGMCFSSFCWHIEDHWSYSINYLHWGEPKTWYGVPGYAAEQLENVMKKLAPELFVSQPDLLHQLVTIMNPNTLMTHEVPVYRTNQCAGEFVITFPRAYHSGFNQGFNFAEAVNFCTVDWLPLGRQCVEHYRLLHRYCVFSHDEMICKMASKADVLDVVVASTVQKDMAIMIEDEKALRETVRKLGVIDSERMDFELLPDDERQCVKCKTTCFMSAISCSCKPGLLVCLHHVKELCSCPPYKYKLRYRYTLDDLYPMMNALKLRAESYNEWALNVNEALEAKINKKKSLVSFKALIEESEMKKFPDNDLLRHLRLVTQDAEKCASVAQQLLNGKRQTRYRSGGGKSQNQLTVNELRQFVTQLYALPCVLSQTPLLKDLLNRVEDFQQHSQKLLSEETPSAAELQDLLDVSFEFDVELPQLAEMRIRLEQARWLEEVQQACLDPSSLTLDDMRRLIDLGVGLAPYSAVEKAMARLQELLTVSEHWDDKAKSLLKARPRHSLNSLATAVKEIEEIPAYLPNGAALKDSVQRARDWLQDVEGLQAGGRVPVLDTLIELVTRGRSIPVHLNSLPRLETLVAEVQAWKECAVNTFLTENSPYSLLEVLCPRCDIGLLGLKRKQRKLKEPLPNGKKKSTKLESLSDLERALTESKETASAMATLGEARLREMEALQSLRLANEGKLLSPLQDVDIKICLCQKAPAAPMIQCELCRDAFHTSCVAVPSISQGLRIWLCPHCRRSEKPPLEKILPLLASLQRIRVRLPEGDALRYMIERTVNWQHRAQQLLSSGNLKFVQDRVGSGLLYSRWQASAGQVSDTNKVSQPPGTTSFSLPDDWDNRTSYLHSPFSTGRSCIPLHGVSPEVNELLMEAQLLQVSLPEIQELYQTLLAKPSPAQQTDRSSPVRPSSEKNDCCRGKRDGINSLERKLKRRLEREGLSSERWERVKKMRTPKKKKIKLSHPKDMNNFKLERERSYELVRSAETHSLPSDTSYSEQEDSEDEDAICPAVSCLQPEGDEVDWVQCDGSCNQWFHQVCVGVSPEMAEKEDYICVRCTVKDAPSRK
test-description: Inhibition of recombinant human N-terminal FLAG-tagged KDM5B expressed in Sf9 insect cells using biotin-H3K4me as substrate by ALPHA
readout-name: IC50

Find the measured IC50 of `Cc1ccccc1-c1nn(-c2ccccc2)cc1C(=O)NCCN1CCOCC1` and report it.
> 10 µM

Find the measured IC50 of `CC(C)c1ccc(-n2cc(C(=O)NCCN3CCOCC3)c(-c3ccccc3)n2)cc1` and report it.
> 10 µM

Find the measured IC50 of `CC(C)c1ccc(-c2nn(-c3ccccc3)cc2C(=O)NCCN2CCOCC2)cc1` and report it.
> 10 µM
